- target.system: MELK (Homo sapiens, UniProt Q14680)
- Sequence (Q14680 whole entry, looked up): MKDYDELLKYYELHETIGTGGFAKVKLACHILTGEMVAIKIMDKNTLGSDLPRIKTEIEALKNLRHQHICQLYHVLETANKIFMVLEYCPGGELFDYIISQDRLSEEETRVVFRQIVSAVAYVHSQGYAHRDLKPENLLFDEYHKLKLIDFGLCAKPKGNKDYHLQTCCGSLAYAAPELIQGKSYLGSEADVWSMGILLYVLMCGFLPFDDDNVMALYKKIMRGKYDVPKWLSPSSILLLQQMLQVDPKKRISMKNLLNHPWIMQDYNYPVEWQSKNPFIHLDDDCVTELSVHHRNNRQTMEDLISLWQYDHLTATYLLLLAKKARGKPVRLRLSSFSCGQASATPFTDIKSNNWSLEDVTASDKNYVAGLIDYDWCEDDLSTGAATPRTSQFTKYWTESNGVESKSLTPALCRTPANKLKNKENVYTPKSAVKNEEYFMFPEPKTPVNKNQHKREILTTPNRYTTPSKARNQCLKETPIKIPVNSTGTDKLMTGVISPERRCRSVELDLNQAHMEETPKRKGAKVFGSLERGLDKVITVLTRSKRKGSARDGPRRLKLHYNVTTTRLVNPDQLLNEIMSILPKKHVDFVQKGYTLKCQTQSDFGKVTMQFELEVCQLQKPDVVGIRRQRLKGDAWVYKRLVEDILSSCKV
- method.notes: Kinase assay: MELK activity, phosphorylation of FITC-labeled histone H3 peptide measured by IMAP fluorescence polarization
- Format: biochemical
- conditions: MELK kinase assay, IMAP fluorescence polarization, 50 micro-M ATP; read-out: IC50 (μM) (kinase assay)
Where a name gives a salt, the structure may show the parent alone.
quantity: log10 IC50 (log10 of the value in µM)

[
  {
    "compound": "CC(=O)c1cnc2ccc(-c3cc(Cl)c(O)c(Cl)c3)cc2c1NC1CCCN(CCN(C)C)C1 (stereo not shown) [Example 850]",
    "quantity": "log10 IC50",
    "value.observed": -2.72
  },
  {
    "compound": "CN1CCN(c2ccc(Nc3c(C(=O)C4CC4)cnc4cc(C(F)(F)F)c(-c5cc(Cl)c(O)c(Cl)c5)cc34)cn2)CC1 [Example 839]",
    "quantity": "log10 IC50",
    "value.observed": 0.62
  },
  {
    "compound": "CC(=O)c1cnc2ccc(-c3cc(Cl)c(O)c(Cl)c3)cc2c1N[C@H]1CC[C@H](NC(=O)[C@H](C)N)CC1 [Example 886]",
    "quantity": "log10 IC50",
    "value.observed": -3.18
  },
  {
    "compound": "CC(=O)c1cnc2cc(C)c(-c3cc(Cl)c(O)c(Cl)c3)cc2c1N[C@H]1CC[C@H](CN(C)C)CC1 [Example 857]",
    "quantity": "log10 IC50",
    "value.observed": 0.53
  },
  {
    "compound": "CN(C)CCN1CCC(Nc2c(C(=O)C3CC3)cnc3ccc(-c4cc(Cl)c(O)c(Cl)c4)cc23)CC1 [Example 819]",
    "quantity": "log10 IC50",
    "value.observed": -2.62
  },
  {
    "compound": "CC(=O)c1cnc2ccc(-c3cc(F)c(O)c(Cl)c3)cc2c1N[C@H]1CC[C@H](C(=O)N(C)C)CC1 [Example 870, hydrochloride]",
    "quantity": "log10 IC50",
    "value.observed": -1.46
  },
  {
    "compound": "CC(=O)c1cnc2cc(F)c(-c3cc(F)c(O)c(Cl)c3)cc2c1N[C@H]1CC[C@H](CN(C)C)CC1 [Example 904, hydrochloride]",
    "quantity": "log10 IC50",
    "value.observed": -1.77
  }
]
